experiment: pKa value is evaluated; type: physicochemical
Please respond with reported pKa for every item in the list.
Give the value as a plain number.

GET /values?readout=pKa&item= `CCC1(C2=CCCCC2)C(=O)NC(=O)NC1=O` 7.36

I would be grateful if you could share the reported pKa for `C=CCC1(C(C)C)C(=O)NC(=O)NC1=O` . 7.73

Please report the recorded pKa for C=CCC1(C(C)CCC)C(=O)NC(=O)NC1=O (stereo not given) . 7.92

Entry CCCC(C)C1(CC)C(=O)NC(=O)NC1=O (stereo not given) has what pKa? 8.02

What does the record list as pKa for `Cc1cc(C)nc(NS(=O)(=O)c2ccc(N)cc2)n1` ? 7.7

Would you kindly share the measured pKa for `C=CCC1(CC(C)C)C(=O)NC(=O)NC1=O` ? 7.54

What does the record list as pKa for `CCC1(c2ccccc2)C(=O)NC(=O)NC1=O` ? 7.26

Given the compound `Nc1ccc(S(=O)(=O)Nc2nccs2)cc1` , what is its reported pKa? 7.25

Look up pKa: `COc1ccc(NS(=O)(=O)c2ccc(N)cc2)nn1` 7.2

# pKa lookup, item `Cc1ccnc(NS(=O)(=O)c2ccc(N)cc2)n1` 6.98

---

species: Oryctolagus cuniculus; assay: Negative log of minimum effective dose (moles per kilogram) in rabbits (hypnotic); type: functional
Please use true (1) whenever -Log C is not below 4, and false (0) whenever it is.

// inclusive: -Log C at least 4? input: C=CCC1(C(C)CCC)C(=O)NC(=O)NC1=O (stereo not given) [SECOBARBITAL] true (1)

I'd appreciate it if you could say whether CCC1(c2ccccc2)C(=O)NC(=O)NC1=O [PHENOBARBITAL] has -Log C at least equal to 4. false (0)

Hi, just wondering whether CN1C(=O)NC(=O)C(C)(C2=CCCCC2)C1=O (stereo not given) [HEXOBARBITAL] shows -Log C of 4 or higher. true (1)

Does the reported -Log C for C=CCC1(C(C)C#CCC)C(=O)NC(=O)N(C)C1=O (stereo not given) [METHOHEXITAL] fall at or above the 4 mark? true (1)

---

test: pKa value is evaluated; type: physicochemical
measured-metric: pKa
Could you respond with only the numeric value?

// query pKa value for entry CC(=O)NS(=O)(=O)c1ccc(N)cc1 [SULFACETAMIDE] 5.78

---

assay: A pKa value is evaluated; format: physicochemical
measured-metric: pKa
Just the number.

Looking for the measured pKa of CCC(C)C1(CC)C(=O)NC(=O)NC1=O (configuration not stated) [BUTABARBITAL] , can you help? 7.89

Which value of pKa has been reported for CN1C(=O)NC(=O)C(C)(C2=CCCCC2)C1=O (configuration not stated) [HEXOBARBITAL] in the records? 7.36

---

experiment: Compound is evaluated for […] log k; format: physicochemical; conditions: octanol/water
So I've got a bunch of molecules here, and I need their Log K values.

May I ask what Log K has been recorded for Nc1ccc(S(=O)(=O)Nc2nccs2)cc1 [SULFATHIAZOLE] ? 0.887

For the molecule CCC1(CC)C(=O)NC(=O)N(C)C1=O [METHARBITAL] , what Log K is on record? 0.71

Returns the measured Log K for the input molecule. Input: C=CCC1(C(C)CCC)C(=O)NC(=S)NC1=O (stereo unspecified) [THIAMYLAL] 1.72

Please report the recorded Log K for Nc1ccc(S(=O)(=O)Nc2ncccn2)cc1 [SULFADIAZINE] . 0.223

Please report the recorded Log K for COc1ccc(NS(=O)(=O)c2ccc(N)cc2)nn1 [SULFAMETHOXYPYRIDAZINE] . 1.35

Would you kindly share the measured Log K for CCC1(C2=CCCCC2)C(=O)NC(=O)NC1=O [CYCLOBARBITAL] ? 0.91

Quick one: Log K for CCC1(CC)C(=O)NC(=O)NC1=O [BARBITAL] ? 0.16

Requested read-out: Log K. Entry: C=CCC1(C(C)C)C(=O)NC(=O)NC1=O [APROBARBITAL] 0.75

// lookup Log K for CCCC(C)C1(CC)C(=O)NC(=S)NC1=O (stereo unspecified) [THIOPENTAL] 1.52

So what's the measured Log K for this one? CCC1(c2ccccc2)C(=O)NC(=O)NC1=O [PHENOBARBITAL] 0.56

I would be grateful if you could share the reported Log K for C=CCC1(CC=C)C(=O)NC(=O)NC1=O [ALLOBARBITAL] . 0.6

Source listed as ChEMBL document CHEMBL1122241.
